The entries below come with measured melting point values attached.

>>> observed("COc1ccc(N)c(C[S+]([O-])c2nc3ccccc3[nH]2)c1 (centres unmarked) [Example 20]")
"152 to 153 °C"

Q: Find the recorded melting point belonging to COc1ccc2[nH]c(SCc3cccc(C)c3N)nc2c1 [Example 35] and report it.
A: 132 to 134 °C

Q: Next compound up: Cc1cc2nc([S+]([O-])Cc3ccccc3N)[nH]c2cc1C (centres unmarked) (hydrate or solvate) [Example 10]
A: 179 to 181 °C

Q: Query Cc1cccc2[nH]c(SCc3ccccc3N)nc12 [Example 7] next
A: 125 to 127 °C

Q: What do you have for CCOC(=O)c1ccc(N)c(CSc2nc3ccccc3[nH]2)c1 [Example 70] ?
A: 174 to 176 °C

Q: Note, next up: CCCCc1ccc(N)c(C[S+]([O-])c2nc3ccccc3[nH]2)c1 (centres unmarked) [Example 51]
A: 146 to 148 °C

Q: Note, next up: CN(C)c1ccccc1C[S+]([O-])c1nc2ccccc2[nH]1 (centres unmarked) [Example 4]
A: 107 to 109 °C
